System: Mus musculus
Experiment: Anticonvulsant activity measured in Maximal electroshock assay (MES), intraperitoneal administration
Assay type: functional
reported.metric: ED50 (mg/kg)
Field: numeric (mg/kg). Do not append units.

-- ask Read the entry CC(NC(C)(C)C)C(O)c1cccc(Cl)c1 (racemic; form 1) [ERYTHRO-HYDROBUPROPION] and write its reported ED50.
-- reply 14

-- ask Look up ED50 of C[C@H](NC(C)(C)C)[C@H](O)c1cccc(Cl)c1 [ERYTHRO-HYDROBUPROPION] and report it.
-- reply 28

-- ask Specify measured ED50 for C[C@@H](NC(C)(C)C)[C@H](O)c1cccc(Cl)c1 [ERYTHRO-HYDROBUPROPION] .
-- reply 11

-- ask Respond only with ED50 recorded for CC(NC(C)(C)C)C(O)c1cccc(Cl)c1 (racemic; form 2) [ERYTHRO-HYDROBUPROPION]
-- reply 26

-- ask Identify measured ED50 associated with CC(NC(C)(C)C)C(O)c1cccc(C(F)(F)F)c1 (racemic; form 1)
-- reply 16

-- ask Please give measured ED50 of the following entry: CC(NC(C)(C)C)[C@H](O)c1ccccc1 (single isomer, unassigned)
-- reply 25
